system: MS2 coat protein; experiment: apparent Kd, MS2 coat protein; higher = weaker binding; RNA-MaP array; details: designed as: ON switch for tryptophan; no ligand
Give measured apparent Kd for each item. Keep answers brief.
Numbers only, in nM.

Some sequences with known apparent Kd results, for comparison:
Given the sequence CCCUCGUCAACGGCCGCCACUGUGAUUCACUAAGAUAAUAUUGCACAUGAGGAUCACCCAUGUCUCAGGACCGGGUUGGUGUGUC and test system MS2 coat protein, the measured apparent Kd is 105

Given the sequence AGACACAUGAGGAUCACCCAUGUACACGAGCGAGGACCGGUACGGCCGCCACUCGUCCAAGCAACUAAUGAGACUCGUAAGAUGG and test system MS2 coat protein, the measured apparent Kd is 24.6

Hi, could you look up apparent Kd for each item in my list?
1. GUAUUACGGACGGCCGCCACUGUGGGACAUGAGGAUCACCCAUGUGGCGCUACUUACAAGUGCGACAGGACCGGGUCAUGGUUUG
2. GAUUCGCAGUCGGCCGCCACUAACAUGAGCUGCUAGUUAUUAUCACAUGAGGAUCACCCAUGUCUUAGGACCGGGACAACCUGUU
3. AGUCACAUGAGGAUCACCCAUGUGCCAGAACGAGGACCGGUACGGCCGCCACUCGAGGCGUCCGUCGACAAUAAUGUGAACUGCA

*A*
811
77.7
10.7
